Measured AC50 accompanies every entry in the list below.
test: CCTE_Shafer_MEA_dev_per_network_spike_spike_number_mean: CCTE's Neural Network Formation Assay for Mean Number of Spikes in a Network Spike, Shafer Lab (AID 2284053);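 also: fitted as decrease in spikes per network spike relative to DMSO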
Activity calls are given as the source filed them. The calls were made as follows: active = hit-call score of the fitted dose curve at least 0.9, where 1 is the maximum; inactive = score below 0.9.

Solved entries:
CCOCn1c(-c2ccc(Cl)cc2)c(C#N)c(Br)c1C(F)(F)F    6.48 µM (active)
Cc1cc(C(F)(C(F)(F)F)C(F)(F)F)ccc1NC(=O)c1cccc(I)c1C(=O)NC(C)(C)CS(C)(=O)=O    17.4 µM (active)

Q. Which AC50 value belongs to "Cc1ccccc1OP(=O)(Oc1ccccc1C)Oc1ccccc1C" ?
A. 20.3 µM (active)
